Cited source: PubChem BioAssay AID686978

Assay: qHTS for Inhibitors of human tyrosyl-DNA phosphodiesterase 1 (TDP1): qHTS in cells in absence of CPT; also: nearly all actives have a fitted effect of over 55% in size
Conditions: DT40 Tdp1-/- hTDP1 cells, no CPT, ATP luminescence, 48 h
Hit rate of the full screen: of about 420,000 compounds, about 64,000 (15%) were called active. Not shown: some 27% with an inconclusive outcome. Calls follow the shape of the dose curve; as a rule, active = well fitted inhibition curve with a large enough effect; inconclusive = small, poorly fitted or top-dose-only effect; inactive = flat fitted curve, though single readings scatter. Only a sample is shown.
Outcome codes: Yes = active, No = inactive

> print(dat)
                               query.smiles  assigned.class
1         O=C(O)Cc1sc(-c2ccccc2)nc1-c1cccs1              No
2  CN(C(=O)COC(=O)CNC(=O)C12CC3CC(CC(C3)C1)C2)c1ccccc1              No
3   Cc1ccc(NC(=O)NNC(=O)c2sccc2-n2cccc2)cc1              No
4     CS(=O)(=O)Nc1ccccc1C(=O)OCC(=O)NC1CC1              No
5  CN(C(=O)COc1nnc(-c2cccs2)c(-c2cccs2)n1)c1ccccc1             Yes
6                      C=CCNc1nc(C)nc(OC)n1              No

----------
Experiment: qHTS for Inhibitors of human tyrosyl-DNA phosphodiesterase 1 (TDP1): qHTS in cells in absence of CPT; also: nearly all actives have a fitted effect of over 55% in size
Settings: DT40 Tdp1-/- hTDP1 cells, no CPT, ATP luminescence, 48 h
In all, about 420,000 compounds went through this assay and about 64,000 (15%) were called active. Not shown: some 27% with an inconclusive outcome. Calls follow the shape of the dose curve; as a rule, active = well fitted inhibition curve with a large enough effect; inconclusive = small, poorly fitted or top-dose-only effect; inactive = flat fitted curve, though single readings scatter. These entries were drawn from the full list.
Outcome codes: active, inactive

> print(dat)
                               query.smiles  assigned.class
1       CCCc1cc(C(=O)Nc2ccc(C(=O)OC)cc2)cs1        inactive
2  CCCCC(=O)Nc1c2c(nn1-c1ccc([N+](=O)[O-])cc1)CS(=O)(=O)C2        inactive
3  O=C(NC1=NCCS1)[C@H](Cc1ccccc1)N1C(=O)c2ccccc2C1=O        inactive
4  CCOC(=O)c1cnc2c(C)cc(C)cc2c1Nc1ccc(N2CCOCC2)cc1          active
5   Cc1ccc(OCCCC(=O)Nc2ccc(N3CCOCC3)cc2)cc1        inactive
6  CCOC(=O)c1cnc2c(C)cc(Cl)cc2c1NCCc1ccc(OC)c(OC)c1        inactive

----------
Assay: qHTS for Inhibitors of human tyrosyl-DNA phosphodiesterase 1 (TDP1): qHTS in cells in absence of CPT; also: nearly all actives have a fitted effect of over 55% in size
Conditions: DT40 Tdp1-/- hTDP1 cells, no CPT, ATP luminescence, 48 h
Among all 420,000 compounds or so, about 64,000 (15%) were called active. Roughly 27% stayed inconclusive and do not appear here. Calls follow the shape of the dose curve; as a rule, active = well fitted inhibition curve with a large enough effect; inconclusive = small, poorly fitted or top-dose-only effect; inactive = flat fitted curve, though single readings scatter. The list is a sample of the results.
Possible outcomes: true (1) (active), false (0) (inactive)

> print(dat)
                                    compound  assigned.class
 1  COc1ccc(NC(=O)C(c2ccncc2)n2c(=O)c(-c3cc4ccccc4[nH]3)nc3ccccc32)cc1 (stereo not given)        true (1)
 2  O=C(CCc1ccc(S(=O)(=O)N2CCOCC2)cc1)NN=C1CCCCCCC1       false (0)
 3  O=C(Nc1c2c(nn1-c1cccc(Cl)c1)CS(=O)(=O)C2)c1cccs1       false (0)
 4  Cc1ccccc1OCC(O)CN1CCN(c2ccccn2)CC1 (stereo not given)       false (0)
 5  CCN(CC)S(=O)(=O)c1ccc2nc(COC(=O)c3n[nH]c4ccccc34)[nH]c2c1       false (0)
 6  CCOCCCNC(=O)C(NC(=O)CNC(=O)c1ccccc1)c1ccc(OC)cc1 (stereo not given)       false (0)
 7  Cc1ccc(C(=O)OCC(=O)Nc2ccc(Cl)cn2)cc1S(=O)(=O)N1CCOCC1       false (0)
 8  CC(C)c1ccc(OCC(O)Cn2cnc3ccccc32)cc1 (stereo not given)        true (1)
 9            CC(C)CCNC(=O)c1cccnc1Sc1ccccc1       false (0)
10  COc1ccc(NC(=O)CN(C)C(=O)c2n[nH]c3ccccc23)cc1       false (0)

----------
Assay: qHTS for Inhibitors of human tyrosyl-DNA phosphodiesterase 1 (TDP1): qHTS in cells in absence of CPT; also: nearly all actives have a fitted effect of over 55% in size
Details: DT40 Tdp1-/- hTDP1 cells, no CPT, ATP luminescence, 48 h
Among all 420,000 compounds or so, about 64,000 (15%) were called active. Not shown: some 27% with an inconclusive outcome. Calls come from the whole dose curve; as a rule, active = well fitted inhibition curve with a large enough effect; inconclusive = small, poorly fitted or top-dose-only effect; inactive = flat fitted curve, though single readings scatter. A selection follows.
Classes used: T = active, F = inactive

> print(dat)
                                    compound  assigned.class
 1  Cc1c(NC(=O)CSc2nnnn2-c2ccc(C(=O)O)cc2)c(=O)n(-c2ccccc2)n1C               F
 2  CC(C)N=C1CCCC1C(=S)SSC(=S)C1CCCC1=NC(C)C (stereo not given)               T
 3  Cc1ccc(C(=O)NN(CCC#N)C2=NS(=O)(=O)c3ccccc32)cc1               F
 4  Cc1cc(C)c2c(=O)[nH]c(SCC(=O)Nc3ccc(Br)cc3)nc2n1               F
 5  O=C(NCCc1ccccc1)c1ccc(NC2=NC3CS(=O)(=O)CC3S2)cc1 (stereo not given)               F
 6  COc1ccc(S(=O)(=O)N(C)CC(=O)N2CCCC2)cc1Cl               F
 7     Cc1ccc(NC(=O)c2sccc2C)cc1[N+](=O)[O-]               F
 8  O=C(COC(=O)c1cc([N+](=O)[O-])ccc1NCc1ccccc1)NC1CCCCC1               F
 9  Cc1ccc(-c2csc(NC(=O)Cn3[nH]c(=O)c4ccccc4c3=O)n2)cc1               T
10  Cc1c(NC(=O)CSc2cccc3cccnc23)c(=O)n(-c2ccccc2)n1C               T

----------
Assay: qHTS for Inhibitors of human tyrosyl-DNA phosphodiesterase 1 (TDP1): qHTS in cells in absence of CPT; also: nearly all actives have a fitted effect of over 55% in size
Conditions: DT40 Tdp1-/- hTDP1 cells, no CPT, ATP luminescence, 48 h
Among all 420,000 compounds or so, about 64,000 (15%) were called active. Not shown: some 27% with an inconclusive outcome. The call rests on the fitted dose curve; in most records, active means well fitted inhibition curve with a large enough effect; inconclusive means small, poorly fitted or top-dose-only effect; inactive means flat fitted curve, though single readings scatter. These entries were drawn from the full list.
Outcomes: class 1 = active, class 0 = inactive

> print(dat)
                                    molecule  assigned.class
 1  Cc1cccc(C)c1NC(=O)CN1CCN(c2ccc(F)cc2)CC1         class 1
 2   O=C(NC(=S)Nc1ccccc1N1CCCCC1)c1ccc(F)cc1         class 0
 3  COc1ccc(C(=O)N(C)CC(O)c2ccccc2)cc1OC1CCN(C(C)=O)CC1 (centres undefined)         class 0
 4  Cc1ccc(NC2=C(c3ccc(C(F)(F)F)cc3)C(=O)c3ccccc32)cc1F         class 1
 5  C/C(=N\NC(=O)Cc1ccccc1[N+](=O)[O-])c1cccnc1         class 0
 6  CSc1ccccc1OCc1cc(C(=O)N2C[C@H]3CC[C@H]2C3)no1         class 0
 7  CC(C)CN(CC(C)C)C(=O)CN1c2cccc3cccc(c23)S1(=O)=O         class 0
 8  COC(=O)c1cc(NC(=O)CCS(=O)(=O)c2cc(Br)cc3c2N(C(=O)C2CC2)CC3)cc(C(=O)OC)c1         class 0
 9         C=CCn1c(CCNC(=O)c2cccs2)n[nH]c1=S         class 0
10  Cc1ccccc1OCc1ccc(-c2nc(C#N)c(N3CCCCC3)o2)o1         class 1
11  CCN(CC)CC1(O)CCN(C(=O)c2ccc(Cl)c(Cl)c2)CC1         class 0
12  Cc1nc(-c2ccc([N+](=O)[O-])cc2)c(-c2ccccc2)o1         class 0
13          Cc1ccc(NC(=O)NC(=O)c2ccccc2)cc1F         class 0
14  COc1ccc(CCN2C(=O)C3CC=C(C)CC3C2=O)cc1OC (centres undefined)         class 0
15  Cc1ccc(-n2c(CNc3ccc(F)cc3)nnc2SCC(=O)N2CCOCC2)cc1         class 0
16  COc1ccc2c(CC(=O)OCC(=O)Nc3ccccc3[N+](=O)[O-])coc2c1         class 0
17      O=C(CN1CCN(c2ccc(F)cc2)CC1)Nc1ccccc1         class 0
18           CCCCC(=O)Nc1ccc2c(c1)C(=O)NC2=O         class 0
19                 COc1ccccc1NS(=O)(=O)N(C)C         class 0
20    C=CCn1c(-c2sc(-c3ccccc3)nc2C)n[nH]c1=S         class 1
21           CCCc1nnc(NC(=O)CCC(=O)NC2CC2)s1         class 0
22  Cc1ccc(Oc2cc(NC(=O)CCCn3nc(C)c([N+](=O)[O-])c3C)cc([N+](=O)[O-])c2)cc1         class 1
23  CCN(CC)C(=O)C(C)N1c2cccc3cccc(c23)S1(=O)=O (centres undefined)         class 1
24  O=C1CC(c2ccccc2)=NN1c1ccc([N+](=O)[O-])cc1         class 1
25             Cc1[nH][nH]c(=O)c1N=Nc1ccccc1         class 0
26  O=C(NC(=S)NC1CCSC1=O)c1ccccc1F (centres undefined)         class 0
27  Cc1ccc(S(=O)(=O)C2(S(=O)(=O)c3ccc(C)cc3)CCCC2)cc1         class 1
28   CCCCC(=O)Nc1ccccc1N1CCN(c2ccc(F)cc2)CC1         class 1
29  O=c1[nH]n(-c2ccc([N+](=O)[O-])cc2)c(=O)c2ccccc12         class 0
30  CC(C)C(NC(=O)c1cccc(S(=O)(=O)N2CCOCC2)c1)C(=O)NCCc1ccccn1 (centres undefined)         class 0
31  O=C(O)CSc1nnc(-c2ccc3c(c2)OCO3)n1-c1ccccc1         class 0
32  COc1ccccc1N1CC(C(=O)NCCN2C(=O)S/C(=C\c3cccnc3)C2=O)CC1=O (centres undefined)         class 0
33  CCOC(=O)c1c(NC(=O)CNC2CCCc3ccccc32)sc(C(N)=O)c1C (centres undefined)         class 1
34  NS(=O)(=O)c1ccc(NS(=O)(=O)/C=C/c2ccccc2)cc1         class 0
35  COc1ccc(OCc2ccc(-c3nc(C#N)c(N4CCN(c5ccccc5)CC4)o3)o2)cc1         class 0
36  CCc1ccc(NC(=O)Cn2nc(C)c([N+](=O)[O-])c2C)cc1         class 0
37  Cc1ccc(CNC(=O)C2(C(F)(F)F)C/C(=C\Cc3ccccc3)CCCO2)o1 (centres undefined)         class 1
38           CC(C)C(=O)Nc1ccc2c3c(cccc13)CC2         class 0
39    C[C@H]1COc2cc(N3CCSCC3)ccc2S(=O)(=O)N1         class 0
40  NC(=O)CCC(NS(=O)(=O)c1ccc(Cl)cc1)C(=O)NCc1ccccc1Cl (centres undefined)         class 0
41   Cc1ccc(C(=O)OCC(=O)NCc2ccc3c(c2)OCO3)s1         class 0
42  NC(=O)C(Cc1ccccc1)NC(=O)C12CC3CC(CC(C3)C1)C2 (centres undefined)         class 0
43            Cc1ccc(S(=O)(=O)NC2CCCCCC2)cc1         class 0
44  COc1ccc(CNC(=O)CCCn2nc(C)c([N+](=O)[O-])c2C)cc1         class 0
